molecular target: BRD4-BD1 (Homo sapiens (Human), UniProt O60885); assay: competitive TR-FRET assay, BET-BD with acetylated peptide ligand; format: binding; conditions: BRD4-BD1; Table 11 additional modifications; read-out: 4.1 EC50
pEC50: −log10 of the molar value.

- smiles.code: "CC(=O)Nc1cccc(-c2ccc3c(c2)[C@H](Nc2cccc4ccccc24)C[C@H](C)N3C(C)=O)c1"
  test.target: "BRD4-BD1 (Homo sapiens (Human), UniProt O60885)"
  pEC50: "< 4.64"
- smiles.code: "CC(=O)Nc1cccc(-c2ccc3c(c2)[C@H](Nc2ccc(-c4nnnn4C)cc2)C[C@H](C)N3C(C)=O)c1"
  test.target: "BRD4-BD1 (Homo sapiens (Human), UniProt O60885)"
  pEC50: "< 4.28"
- smiles.code: "CC(=O)Nc1cccc(-c2ccc3c(c2)[C@H](Nc2ccc(C(=O)CO)cc2)C[C@H](C)N3C(C)=O)c1"
  test.target: "BRD4-BD1 (Homo sapiens (Human), UniProt O60885)"
  pEC50: "< 4.15"
- smiles.code: "COc1cc(F)ccc1N[C@@H]1C[C@H](C)N(C(C)=O)c2ccc(-c3cccc(CNCC(F)(F)F)c3)cc21"
  test.target: "BRD4-BD1 (Homo sapiens (Human), UniProt O60885)"
  pEC50: "< 4.52"
- smiles.code: "COc1cc(F)ccc1N[C@@H]1C[C@H](C)N(C(C)=O)c2ccc(-c3cc[nH]n3)cc21"
  test.target: "BRD4-BD1 (Homo sapiens (Human), UniProt O60885)"
  pEC50: "< 4.59"

###

molecular target: BRD4-BD1 (Homo sapiens (Human), UniProt O60885); assay: competitive TR-FRET assay, BET-BD with acetylated peptide ligand; assay type: binding; conditions: BRD4-BD1; Table 11 additional modifications; read-out: 4.1 EC50
pEC50: −log10 of the molar value.
Quick list: pEC50 per entry.
outcome.measure: pEC50

- smiles.code: "CCCOc1cccc(-c2ccc3c(c2)[C@H](Nc2ccc(C(=O)OC)cc2)C[C@H](C)N3C(C)=O)c1"
  outcome.measure: "pEC50"
  reported: "< 4.20"
- smiles.code: "COC(=O)c1ccc(N[C@@H]2C[C@H](C)N(C(C)=O)c3ccc(-c4cccc(NC(C)=O)c4)cc32)c(OC)c1"
  outcome.measure: "pEC50"
  reported: "< 4.52"
- smiles.code: "COc1cccc(-c2ccc3c(c2)[C@H](NC(=O)OC(C)C)C[C@H](C)N3C(C)=O)c1"
  outcome.measure: "pEC50"
  reported: "< 4.17"

###

Target: BRD2-BD2 (Homo sapiens (Human), UniProt P25440)
Sequence (P25440 344-453): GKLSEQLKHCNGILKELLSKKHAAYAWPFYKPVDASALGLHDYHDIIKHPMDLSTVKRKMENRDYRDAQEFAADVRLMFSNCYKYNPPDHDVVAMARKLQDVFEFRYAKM
Experiment: competitive TR-FRET assay, BET-BD with acetylated peptide ligand
Format: binding
Details: BRD2-BD2; Table 11 additional modifications; read-out: 2.2 EC50
Description: Inhibitor potency was determined using a competitive TR-FRET assay as detailed herein, measuring interaction of the respective BET-BD with an acetylated peptide ligand (Table 2).
pEC50: −log10 of the molar value.
outcome.measure: pEC50

- molecule: "CC(=O)N1c2ccc(-c3cc[nH]n3)cc2[C@H](Nc2ccccc2OC(F)(F)F)C[C@@H]1C"
  reported: 6.36
- molecule: "CC(=O)N1c2ccc(-c3ccc(N(C)C)cc3)cc2[C@H](NC(=O)OC(C)C)C[C@@H]1C"
  reported: 6.10
- molecule: "CC(=O)Nc1cccc(-c2ccc3c(c2)[C@H](Nc2ccccc2Cl)C[C@H](C)N3C(C)=O)c1 [compound 197]"
  reported: 7.27
- molecule: "COC(=O)c1ccc(N[C@@H]2C[C@H](C)N(C(C)=O)c3ccc(-c4cccc(OCCN5CCOCC5)c4)cc32)cc1"
  reported: 7.70
- molecule: "CC(=O)N1c2ccc(-c3cccc(NC(=O)C(C)C)c3)cc2[C@H](Nc2ccc(C#N)cc2)C[C@@H]1C"
  reported: 6.96
